Listed next: entries and their corresponding ratio of IC50 for cells with mutant EGFR to IC50 for cells with wildtype EGFR (Mut/WT).
Target: EGFR H773insNPH (Homo sapiens, UniProt P00533, INS773NPH)
Construct: expressed in transfected cells; host or cells: Ba/F3 cells, retroviral pBabe-Puro vector
Assay: Ba/F3 drug screening, Cell Titer Glo, IC50 Mut/WT
Assay type: cell-based
Settings: Ex20, 72 hours
Write no unit; give the number alone.

See these solved cases before continuing.
Cc1cc(C(=O)Nc2nc3cccc(Cl)c3n2[C@@H]2CCCCN(C(=O)/C=C/CN(C)C)C2)ccn1
0.4242
C=CC(=O)N[C@H]1C=C(C)c2c(-c3cnc4ccccc4c3)c3c(N)ncnc3n2C1
0.1843
CNC(=O)CN1CCC(Oc2cc3c(Nc4cccc(Cl)c4F)ncnc3cc2OC)CC1
1.265

Query :: Answer briefly: ratio of IC50 for cells with mutant EGFR to IC50 for cells with wildtype EGFR (Mut/WT) recorded on EGFR H773insNPH (Homo sapiens, UniProt P00533, INS773NPH) for COc1cc2ncnc(Nc3ccc(F)c(Cl)c3)c2cc1NC(=O)/C=C/CN1CCCCC1
Result :: 1.645

Query :: Under EGFR H773insNPH (Homo sapiens, UniProt P00533, INS773NPH): report ratio of IC50 for cells with mutant EGFR to IC50 for cells with wildtype EGFR (Mut/WT) of C=CC(=O)N1CC[C@@H](Oc2nc(Nc3ccc(N4CCC(N5CCN(C)CC5)CC4)cc3)c(C(N)=O)nc2CC)C1 .
Result :: 1.077

Query :: Give ratio of IC50 for cells with mutant EGFR to IC50 for cells with wildtype EGFR (Mut/WT) only, for CN(C)C/C=C/C(=O)Nc1cc2c(Nc3ccc(Cl)c(Br)c3)ncnc2cn1 , using EGFR H773insNPH (Homo sapiens, UniProt P00533, INS773NPH) data.
Result :: 11.56

Query :: Would you please give the reported ratio of IC50 for cells with mutant EGFR to IC50 for cells with wildtype EGFR (Mut/WT) of C=CC(=O)Nc1cc(Nc2nccc(-c3c[nH]c4ccccc34)n2)c(OC)cc1N(C)CCN(C)C with EGFR H773insNPH (Homo sapiens, UniProt P00533, INS773NPH)?
Result :: 3.997

Query :: Name the recorded ratio of IC50 for cells with mutant EGFR to IC50 for cells with wildtype EGFR (Mut/WT) of C=CC(=O)Nc1cccc(Oc2nc(Nc3ccc(N4CCN(C)CC4)cc3)nc3ccsc23)c1 , assay system EGFR H773insNPH (Homo sapiens, UniProt P00533, INS773NPH).
Result :: 0.4274
